A collection of molecules and their measured Relative Luminescence Activity 6h-CTZ Imax
# Measurement notes: Substrate specificities of KAZ mutants (ZZ-fused, crude enzyme), 6h-CTZ
# Assay type: biochemical
# Measurement parameters: 1 μg substrate, maximum intensity of luminescence
Note: the reply should be a number with no unit written.

Solved cases below.
### Prompt // Relative Luminescence Activity 6h-CTZ Imax lookup, key: KAZ-A54I-Y138I: KAZ mutant with two amino acid substitutions A54I and Y138I, SEQ ID NO: 14 (protein) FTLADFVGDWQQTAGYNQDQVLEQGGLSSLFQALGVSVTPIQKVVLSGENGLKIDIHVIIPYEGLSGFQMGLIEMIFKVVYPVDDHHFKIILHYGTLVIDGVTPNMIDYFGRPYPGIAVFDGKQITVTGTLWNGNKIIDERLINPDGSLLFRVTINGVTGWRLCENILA
### Response 5.8

### Prompt // Relative Luminescence Activity 6h-CTZ Imax lookup, key: KAZ-Y138I: KAZ with single amino acid substitution Y138I, SEQ ID NO: 8 (protein) FTLADFVGDWQQTAGYNQDQVLEQGGLSSLFQALGVSVTPIQKVVLSGENGLKADIHVIIPYEGLSGFQMGLIEMIFKVVYPVDDHHFKIILHYGTLVIDGVTPNMIDYFGRPYPGIAVFDGKQITVTGTLWNGNKIIDERLINPDGSLLFRVTINGVTGWRLCENILA
### Response 0.2

### Prompt // Relative Luminescence Activity 6h-CTZ Imax lookup, key: KAZ-A54I: KAZ with single amino acid substitution A54I, SEQ ID NO: 6 (protein) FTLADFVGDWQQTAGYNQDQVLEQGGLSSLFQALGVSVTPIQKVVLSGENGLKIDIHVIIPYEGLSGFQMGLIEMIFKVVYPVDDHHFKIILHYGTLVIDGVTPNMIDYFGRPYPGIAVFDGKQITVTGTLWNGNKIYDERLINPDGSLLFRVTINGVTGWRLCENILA
### Response 1.6

### Prompt // Relative Luminescence Activity 6h-CTZ Imax lookup, key: KAZ-V44I-Y138I: KAZ mutant with two amino acid substitutions V44I and Y138I, SEQ ID NO: 12 (protein) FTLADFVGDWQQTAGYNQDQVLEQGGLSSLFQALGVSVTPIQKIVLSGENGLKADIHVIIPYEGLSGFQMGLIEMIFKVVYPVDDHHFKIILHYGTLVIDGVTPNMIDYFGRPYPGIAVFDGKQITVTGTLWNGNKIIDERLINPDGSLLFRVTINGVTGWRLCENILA
### Response 4.3

Next:
### Prompt // Relative Luminescence Activity 6h-CTZ Imax lookup, key: KAZ: wild 19 kDa catalytic protein of Oplophorus luciferase (19kOLase), amino acid sequence SEQ ID NO: 2 (protein, listed as Oplophorus gracilirostris) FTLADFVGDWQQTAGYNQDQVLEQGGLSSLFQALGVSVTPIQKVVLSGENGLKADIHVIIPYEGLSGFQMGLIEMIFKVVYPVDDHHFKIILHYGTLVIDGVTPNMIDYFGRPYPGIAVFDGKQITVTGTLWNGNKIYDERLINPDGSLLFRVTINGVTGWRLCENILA
### Response 0.1

FYI, the data here is from patent US10907134B2.
